System: Rattus norvegicus
Test: Systolic blood pressure (SBP) in anesthetized spontaneously hypertensive rats (SHR) before administration of 75 mg/kg dose perorally.
Format: functional
Design: unit: mmHg
Conditions: route oral
Endpoint Name: Systolic blood pressure
Response field accepts a number only; no unit should be typed.

Use the examples below as a reference point.
Request: Systolic blood pressure, test system Rattus norvegicus, entry O=c1cc(-c2ccccc2)oc2cc(OCC(O)CN3CCN(c4ccccc4)CC3)ccc12 (centres undefined)
217

Here is the next molecule: CC(C)[N+](C)(C)CC(O)COc1ccc2c(=O)cc(-c3ccccc3)oc2c1.[I-] (centres undefined)
200

Here is the next molecule: O=c1cc(-c2ccccc2)oc2cc(OCC(O)CNC3CCS(=O)(=O)C3)ccc12 (centres undefined)
196

Here is the next molecule: COc1ccc(-c2cc(=O)c3ccc(OCC(O)CNC(C)C)cc3o2)cc1 (centres undefined)
198

Here is the next molecule: O=c1cc(-c2ccccc2)oc2cc(OCC(O)CNCCO)ccc12 (centres undefined)
189

More entries:
Request: Systolic blood pressure, test system Rattus norvegicus, entry Cc1ccc(-c2cc(=O)c3ccc(OCC(O)CNC(C)C)cc3o2)cc1 (centres undefined)
196

====

Target: Adrenergic receptor beta (Rattus norvegicus, UniProt P18090+P10608+P26255)
Reported log10 Ki values for a set of compounds
Log scale reminder: Ki in nM, then log10 taken.

Use the examples below as a reference point.
Param item = CC(C)NCC(O)COc1cccc2c(=O)cc(-c3ccccc3)oc12 (stereo not drawn) ; retrieve measured log10 Ki.
0.88

Here is the next compound: CC(C)NCC(O)COc1ccc2c(=O)cc(-c3ccccc3)oc2c1 (stereo not drawn)
4.08

Here is the next compound: CCNCC(O)COc1ccc2c(=O)cc(-c3ccccc3)oc2c1 (stereo not drawn)
3.88

Here is the next compound: Cc1cc(=O)c2ccc(OCC(O)CNC(C)C)cc2o1 (stereo not drawn)
4.36

More entries:
Param item = O=c1cc(-c2ccccc2)oc2cc(OCC(O)CNC3CC3)ccc12 (stereo not drawn) ; retrieve measured log10 Ki.
3.18

Here is the next compound: CC(C)NCC(O)COc1ccc2oc(-c3ccccc3)cc(=O)c2c1 (stereo not drawn)
3.34

Here is the next compound: CC(C)(C)NCC(O)COc1ccc2c(=O)cc(-c3ccccc3)oc2c1 (stereo not drawn)
4.26

Here is the next compound: CCCNCC(O)COc1ccc2c(=O)cc(-c3ccccc3)oc2c1 (stereo not drawn)
0.60

====

System: Rattus norvegicus
Assay: Systolic blood pressure (SBP) in anesthetized spontaneously hypertensive rats (SHR) before administration of 75 mg/kg dose perorally.
Format: functional
Set-up: unit: mmHg
Conditions: route oral
Under this convention, Condition met denotes Systolic blood pressure strictly below 200 and Condition not met denotes Systolic blood pressure at or above 200.

Lab note: confirm whether the reported Systolic blood pressure for this compound is below 200, equality not counting. compound: NCC(O)COc1ccc2c(=O)cc(-c3ccccc3)oc2c1 (stereo not given)
Condition met

Here is the next compound: Cc1c(-c2ccccc2)oc2cc(OCC(O)CNC(C)C)ccc2c1=O (stereo not given)
Condition not met

More entries:
Lab note: confirm whether the reported Systolic blood pressure for this compound is below 200, equality not counting. compound: O=c1cc(-c2ccccc2)oc2cc(OCC3CO3)ccc12 (stereo not given)
Condition met

Here is the next compound: CN(C)CC(O)COc1ccc2c(=O)cc(-c3ccccc3)oc2c1 (stereo not given)
Condition not met

====

Tested on: Rattus norvegicus
Assay: % decrease in systolic blood pressure (SBP) in anesthetized spontaneously hypertensive rats(SHR) after administration of 150 mg/kg dose perorally
Conditions: route oral
Reported % decrease SBP values for a set of molecules
Please respond with the number in % and leave the unit unwritten.

Use the examples below as a reference point.
Request: % decrease SBP, test system Rattus norvegicus, entry CC(C)NCC(O)COc1ccc2c(=O)c(-c3ccccc3)coc2c1 (centres undefined)
34

Here is the next molecule: CC(C)NCC(O)COc1ccc2c(=O)cc(-c3ccccc3)oc2c1 (centres undefined)
33

Here is the next molecule: CN(C)CC(O)COc1ccc2c(=O)cc(-c3ccccc3)oc2c1 (centres undefined)
5

More entries:
Request: % decrease SBP, test system Rattus norvegicus, entry COc1c(-c2ccccc2)oc2cc(OCC(O)CNC(C)C)ccc2c1=O (centres undefined)
16

====

Tested on: Rattus norvegicus
Experiment: Systolic blood pressure (SBP) in anesthetized spontaneously hypertensive rats(SHR) at 7.5 hours after administration of 35 mg/kg dose perorally
Type: functional
Conditions: route oral
Reported Decrease in Systolic blood pressure values for a set of compounds
Please respond with the number in % and leave the unit unwritten.

Request: Decrease in Systolic blood pressure, test system Rattus norvegicus, entry O=c1cc(-c2ccccc2)oc2cc(OCC(O)CNC3CCCCC3)ccc12 (centres undefined)
20

Here is the next compound: CCNCC(O)COc1ccc2c(=O)cc(-c3ccccc3)oc2c1 (centres undefined)
16

Here is the next compound: O=c1cc(-c2ccccc2)oc2cc(OCC(O)CNC3CC3)ccc12 (centres undefined)
31

Here is the next compound: CCCNCC(O)COc1ccc2c(=O)cc(-c3ccccc3)oc2c1 (centres undefined)
27

More entries:
Request: Decrease in Systolic blood pressure, test system Rattus norvegicus, entry CC(C)NCC(O)COc1ccc2c(=O)cc(-c3ccccc3Cl)oc2c1 (centres undefined)
18

Here is the next compound: CCCCNCC(O)COc1ccc2c(=O)cc(-c3ccccc3)oc2c1 (centres undefined)
26

Here is the next compound: CC(C)NCC(O)COc1ccc2c(=O)cc(-c3ccccc3)oc2c1 (centres undefined)
21

Here is the next compound: Cc1c(-c2ccccc2)oc2cc(OCC(O)CNC(C)C)ccc2c1=O (centres undefined)
10

Here is the next compound: CC(C)NCC(O)COc1ccc2c(=O)cc(-c3ccc(Cl)cc3)oc2c1 (centres undefined)
19

====

Reported Systolic blood pressure values for a set of molecules
Tested on: Rattus norvegicus
Experiment: Systolic blood pressure (SBP) in anesthetized spontaneously hypertensive rats(SHR) before administration of 35 mg/kg dose perorally
Assay type: functional
Set-up: unit not given here
Conditions: route oral
Response field accepts a number only; no unit should be typed.

Use the examples below as a reference point.
Param item = Cc1c(-c2ccccc2)oc2cc(OCC(O)CNC(C)C)ccc2c1=O (stereo not drawn) ; retrieve measured Systolic blood pressure.
206

Here is the next molecule: CNCC(O)COc1ccc2c(=O)cc(-c3ccccc3)oc2c1 (stereo not drawn)
190

Here is the next molecule: CC(C)NCC(O)COc1ccc2c(=O)cc(-c3ccc(Cl)cc3)oc2c1 (stereo not drawn)
192

Here is the next molecule: CCCCNCC(O)COc1ccc2c(=O)cc(-c3ccccc3)oc2c1 (stereo not drawn)
202

Here is the next molecule: O=c1cc(-c2ccccc2)oc2cc(OCC(O)CNC3CC3)ccc12 (stereo not drawn)
198

Here is the next molecule: O=c1cc(-c2ccccc2)oc2cc(OCC(O)CNC3CCCCC3)ccc12 (stereo not drawn)
201

Here is the next molecule: CC(C)NCC(O)COc1ccc2c(=O)cc(-c3ccccc3Cl)oc2c1 (stereo not drawn)
192

Then this molecule:
Param item = CCNCC(O)COc1ccc2c(=O)cc(-c3ccccc3)oc2c1 (stereo not drawn) ; retrieve measured Systolic blood pressure.
186

====

Reported Decrease in Systolic blood pressure values for a set of molecules
Tested on: Rattus norvegicus
Assay: Systolic blood pressure (SBP) in anesthetized spontaneously hypertensive rats(SHR) at 7.5 hours after administration of 75 mg/kg dose perorally
Type: functional
Settings: route oral
Please respond with the number in % and leave the unit unwritten.

Use the examples below as a reference point.
Param item = Cc1c(-c2ccccc2)oc2cc(OCC(O)CNC(C)C)ccc2c1=O (configuration not stated) ; retrieve measured Decrease in Systolic blood pressure.
27

Here is the next molecule: CCCNCC(COc1ccc2c(=O)cc(-c3ccccc3)oc2c1)OC(=O)c1ccccc1 (configuration not stated)
22.5

Here is the next molecule: CCCNCC(O)COc1ccc2c(=O)c(Cc3ccccc3)c(-c3ccccc3)oc2c1 (configuration not stated)
14

Here is the next molecule: CC(C)NCC(O)COc1ccc2c(=O)cc(-c3ccccc3)oc2c1 (configuration not stated)
27

Here is the next molecule: CC(C)NCC(O)COc1cc(O)c2c(=O)cc(-c3ccccc3)oc2c1 (configuration not stated)
15

More entries:
Param item = O=c1cc(-c2ccccc2)oc2cc(OCC(O)CNC3CC3)ccc12 (configuration not stated) ; retrieve measured Decrease in Systolic blood pressure.
32

Here is the next molecule: CC(C)NCC(O)COc1ccc2oc(-c3ccccc3)cc(=O)c2c1 (configuration not stated)
12

====

Test system: Rattus norvegicus
Assay: Systolic blood pressure (SBP) in anesthetized spontaneously hypertensive rats (SHR) before administration of 75 mg/kg dose perorally.
Assay type: functional
Design: unit: mmHg
Conditions: route oral
Reported Systolic blood pressure values for a set of molecules
Response field accepts a number only; no unit should be typed.

Param item = O=c1cc(-c2ccccc2)oc2cc(OCC(O)CNC3CC3)ccc12 (stereo unspecified) ; retrieve measured Systolic blood pressure.
196

More entries:
Param item = CC(C)NCC(O)COc1ccc2c(=O)cc(-c3cccc(Cl)c3)oc2c1 (stereo unspecified) ; retrieve measured Systolic blood pressure.
200

Here is the next molecule: Cc1cc(=O)c2ccc(OCC(O)CNC(C)C)cc2o1 (stereo unspecified)
196

Here is the next molecule: O=c1cc(-c2ccccc2)oc2cc(OCC(O)CNCc3ccccc3)ccc12 (stereo unspecified)
223
